Provide the recorded clearance for the entries that follow.
# Assay Details: Plasma clearance in dog at 1 mg/kg, iv by LC-MS/MS analysis
# Type: ADME, organism-based, Canis lupus familiaris
The response must be a number in mL/min/kg with no trailing unit.

// clearance value for Cc1cc(C(=O)N[C@H]2CCCCC/C=C\[C@@H]3C[C@@]3(C(=O)NS(=O)(=O)C3CC3)NC(=O)[C@@H]3C[C@@H](Oc4nc5ccccc5nc4C(F)(F)F)CN3C2=O)no1 : 5.67

Record Cc1cc(C(=O)N[C@H]2CCCCC/C=C\[C@@H]3C[C@@]3(C(=O)NS(=O)(=O)C3(C)CC3)NC(=O)[C@@H]3C[C@@H](Oc4nc5cc(F)ccc5nc4C(F)(F)F)CN3C2=O)no1 . Reported clearance: 0.333

Lab book: clearance of Cc1cc(C(=O)N[C@H]2CCCCC/C=C\[C@@H]3C[C@@]3(C(=O)NS(=O)(=O)C3CC3)NC(=O)[C@@H]3C[C@@H](Oc4nc5cc(F)ccc5nc4C)CN3C2=O)no1 noted as 1.17
